Tested on: SN12C renal
Experiment: NCI tumour cell line growth inhibition, 48 h
Outcome label depends on TGI relative to 6 µM: at/above gives y, below gives n.

Cc1cccc(NC2=C(Cl)C(=O)N(Cc3ccc(Cl)cc3)C2=O)c1: y

Could you please find out whether `COC(=O)c1ccc(NC(=O)c2cc3c(cc2Br)OCO3)o1` has TGI that meets 6 µM or exceeds it?
y

Could you please find out whether `O=C(CC(Cl)(Cl)C(Cl)(Cl)Cl)c1ccccc1` has TGI that meets 6 µM or exceeds it?
n

Check if TGI >= 6 µM (inclusive). Item: NC(Cc1c[nH]c2ccccc12)P(=O)(O)O (configuration not stated)
y

---

System: NCI/ADR-RES ovarian
Assay: NCI tumour cell line growth inhibition, 48 h; in the data active means GI50 below about 0.43 µM; inactive means the rest
Classes to choose from: active, inactive

COc1cccc2cc(N(C)c3ncnc4ccccc34)ccc12: active
COc1ccc(F)cc1/C=C/C(=O)/C=C(/C=C/c1cc(F)ccc1OC)OB(F)F: inactive
Oc1ccc(-c2cn3ccsc3n2)cc1O: inactive

Please share the test call associated with `Cn1cc(C2=C(c3c4n(c5ccccc35)CCN(C(N)=S)C4)C(=O)NC2=O)c2ccccc21` .
inactive

Please share the test call associated with COc1cc(OC)cc(C2C(C#N)=C(N)Oc3c2ccc2ccc(O)cc32)c1 (configuration not stated) .
active

Which outcome was assigned to `COc1ccc(-c2c(C#N)c(N)nc3c2COc2ccc(F)cc2-3)cc1OC` in this test?
inactive

Returns: the outcome recorded for `Cc1cccc(NC2=C(Cl)C(=O)N(Cc3ccc(Cl)cc3)C2=O)c1` in this assay.
inactive

What call does the record list for `O=C(Nc1cccc(Cl)c1)Nc1cc2ncncc2cc1OCc1cccc(F)c1` ?
inactive

Just curious, what result did `Cc1cc(I)cc(CN(C)CCN2CCOCC2)c1O` get here?
inactive

Could you check what this test reported for `O=C1Nc2ccccc2C1(c1c[nH]c2ccccc12)c1c[nH]c2ccccc12` ?
inactive

Which outcome did this test record for the compound CCn1cc(C(=O)N/N=C/c2ccc(Br)cc2)c(=O)c2cc(F)c(N3CCNC(C)C3)c(F)c21 (configuration not stated) ?
inactive

What call does the record list for O=C(NC1CCC(Br)CC1)C1CCCC(S(=O)(=O)NC2CCCCC2)C1 (configuration not stated) ?
inactive

---

Measured TGI values are reported for all entries that follow.
Test system: DU-145 prostate
Test: NCI tumour cell line growth inhibition, 48 h

Consider the worked cases shown below.
CC(=O)Nc1ccc2c(C3=C(c4cn(C)c5ccccc45)C(=O)NC3=O)cn(C)c2c1: > 24.2 µM
Cc1ccc(S(=O)(=O)NCCN(CCNS(=O)(=O)c2ccc(C)cc2)S(=O)(=O)c2ccc(C)cc2)cc1: > 100 µM
COC(=O)c1ccc(NC(=O)c2cc3c(cc2Br)OCO3)o1: > 100 µM
Cn1c(-c2c(N)n(Cc3ccc(C(F)(F)F)cc3)c3nc(C#N)c(C#N)nc23)nc2ccccc21: 65.8 µM
CC1SC(c2ccc(Cl)c(Cl)c2)N(NC(=O)C(O)c2ccccc2)C1=O (stereo not drawn): > 100 µM

DU-145 prostate TGI of CC(C)(C)C(=O)CC1(O)C=C(O)C(O)(CC(=O)C(C)(C)C)O1 (stereo not drawn) is > 100 µM

Value sought: TGI, system DU-145 prostate, item COc1ccc(Cc2nc3cc([N+](=O)[O-])ccc3n2C[C@@H]2CCCN3CCCCC23)cc1 (stereo partly drawn) . Result: > 100 µM

Bench note, DU-145 prostate: entry `ClC1=C(Cl)C(Cl)=C(Cl)C1=Cc1ccccc1` , its TGI = 2.83 µM

Simply: C=C(C)C(CC=C(C)C)Cc1c(O)cc(OC)c2c1OC(c1ccc(O)cc1O)C(O)C2=O (stereo not drawn) , DU-145 prostate, TGI = 32.4 µM

Value (TGI, DU-145 prostate) for record COC(=O)CSC1CC(=O)c2c(Cl)sc(Cl)c21 (stereo not drawn) = > 100 µM
